assayed_system: Recombinant JAK3 (Amino acids 781-1124) (Homo sapiens)
Construct: JAK3 (Amino acids 781-1124; NM_000215.3); made in house; host or cells: baculovirus expression system (Bac-to-Bac)
Sequence (P52333 781-1124): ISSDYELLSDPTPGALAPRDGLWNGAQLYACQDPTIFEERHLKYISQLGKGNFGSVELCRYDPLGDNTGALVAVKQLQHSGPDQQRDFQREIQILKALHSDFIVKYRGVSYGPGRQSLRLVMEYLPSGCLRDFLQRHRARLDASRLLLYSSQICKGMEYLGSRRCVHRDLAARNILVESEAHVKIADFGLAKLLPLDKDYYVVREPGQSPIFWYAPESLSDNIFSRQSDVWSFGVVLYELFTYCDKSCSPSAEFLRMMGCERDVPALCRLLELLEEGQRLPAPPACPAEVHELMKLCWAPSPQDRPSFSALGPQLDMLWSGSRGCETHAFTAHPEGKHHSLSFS
test_details: Kinase-Glo Luminescent Kinase Assay, recombinant JAK3
Type: biochemical
measurement_parameters: 200 μg/ml Poly Glu-Tyr (4:1), ATP 1 uM, 90 min room temperature, luminescence
pIC50: −log10 of the molar value.
property_measured: pIC50

Requested field: pIC50. Item: O=C(CCC(F)(F)F)N1CCC(c2ncnc3cnc4[nH]ccc4c23)C1 (stereo not drawn)
< 7.70

Requested field: pIC50. Item: CC(C)NC(=O)C1CCN(c2ccnc3cnc4[nH]ccc4c23)CC1
< 7.70

Requested field: pIC50. Item: O=C(C1CC1)N1CCCC(c2ccnc3cnc4[nH]ccc4c23)C1 (stereo not drawn)
7.70 to 9.00

Requested field: pIC50. Item: CC(C)CNC(=O)N1CCCC(c2ccnc3cnc4[nH]ccc4c23)C1 (stereo not drawn)
< 7.70

Requested field: pIC50. Item: O=C(CC(F)(F)F)N1CCC(c2ncnc3cnc4[nH]ccc4c23)C1 (stereo not drawn)
< 7.70

Requested field: pIC50. Item: CN(C)C(=O)N1CCCC(c2ccnc3cnc4[nH]ccc4c23)C1 (stereo not drawn)
7.70 to 9.00

Requested field: pIC50. Item: O=C(CC(F)(F)F)N1CC[C@@H](c2ccnc3cnc4[nH]ccc4c23)C1 [Ex. 15B]
< 7.70

Requested field: pIC50. Item: N#CCS(=O)(=O)NC1CCN(c2ccnc3cnc4[nH]ccc4c23)C1 (stereo not drawn)
7.70 to 9.00

Requested field: pIC50. Item: CS(=O)(=O)N1CCC(c2ccnc3cnc4[nH]ccc4c23)C1 (stereo not drawn)
< 7.70
